SUBJECT_OF_TEST: UniProt P34972
TEST_DETAILS: DiscoveRx HitHunter inhibition of FSK-stimulated cAMP accumulation
Assay type: cell-based
pEC50: −log10 of the molar value.
Entry flag: satisfied if pEC50 reaches 7; not satisfied if it does not.

Q. Given the entry Cc1c(Br)cn(CCCCOCCCCn2c(=O)c(C(=O)NC3CCC(C)CC3)cc3cccnc32)c(=O)c1NC(=O)C1CCCCCC1 (stereo not drawn) [JR60a] , answer whether its pEC50 meets or surpasses 7.
A. not satisfied

Q. Given the entry Cc1c(Br)cn(CCOCCn2c(=O)c(C(=O)NC3CCC(C)CC3)cc3cccnc32)c(=O)c1NC(=O)C1CCCCCC1 (stereo not drawn) [JR58a] , answer whether its pEC50 meets or surpasses 7.
A. not satisfied

Q. Given the entry Cc1c(Br)cn(CCCCCn2c(=O)c(C(=O)NC3CCC(C)CC3)cc3cccnc32)c(=O)c1NC(=O)C1CCCCCC1 (stereo not drawn) [JR61a] , answer whether its pEC50 meets or surpasses 7.
A. not satisfied

Q. Given the entry Cc1c(Br)cn(CCCCCCCn2c(=O)c(C(=O)NC3CCC(C)CC3)cc3cccnc32)c(=O)c1NC(=O)C1CCCCCC1 (stereo not drawn) [JR64a] , answer whether its pEC50 meets or surpasses 7.
A. satisfied

Q. Given the entry CC1CCC(NC(=O)c2cc3cccnc3n(CCCCCO)c2=O)CC1 (stereo not drawn) [LV62, reference compound] , answer whether its pEC50 meets or surpasses 7.
A. satisfied

====

Would you mind telling me the reported melting point of each entry?

Q. Return the recorded melting point value; entry: Cc1c(Br)cn(Cc2cn(CCCCC(=O)NC3CCC(NC(=O)c4cc5cccnc5n(Cc5ccc(F)cc5)c4=O)CC3)nn2)c(=O)c1NC(=O)C1CCCCCC1 (centres unmarked) [JR16a]
A. 113 °C (dec.)

Q. Return the recorded melting point value; entry: Cc1c(Br)cn(CCOCCn2c(=O)c(C(=O)NC3CCC(C)CC3)cc3cccnc32)c(=O)c1NC(=O)C1CCCCCC1 (centres unmarked) [JR58a]
A. 110 °C (dec.)

Q. Return the recorded melting point value; entry: Cc1c(Br)cn(Cc2cn(CCCCCn3c(=O)c(C(=O)NC4CCC(C)CC4)cc4cccnc43)nn2)c(=O)c1NC(=O)C1CCCCCC1 (centres unmarked) [JR26a]
A. 116 °C (dec.)

Q. Return the recorded melting point value; entry: Cc1c(Br)cn(CCCCCn2c(=O)c(C(=O)NC3CCC(C)CC3)cc3cccnc32)c(=O)c1NC(=O)C1CCCCCC1 (centres unmarked) [JR61a]
A. 118 °C (dec.)

Q. Return the recorded melting point value; entry: Cc1c(Br)cn(CCCCOCCCCn2c(=O)c(C(=O)NC3CCC(C)CC3)cc3cccnc32)c(=O)c1NC(=O)C1CCCCCC1 (centres unmarked) [JR60a]
A. 118 °C (dec.)

Q. Return the recorded melting point value; entry: Cc1c(Br)cn(CCCCCCCn2c(=O)c(C(=O)NC3CCC(C)CC3)cc3cccnc32)c(=O)c1NC(=O)C1CCCCCC1 (centres unmarked) [JR64a]
A. 121 °C (dec.)

Q. Return the recorded melting point value; entry: Cc1c(Br)cn(CCCc2cn(CCCCCn3c(=O)c(C(=O)NC4CCC(C)CC4)cc4cccnc43)nn2)c(=O)c1NC(=O)C1CCCCCC1 (centres unmarked) [JR22a]
A. 114 °C (dec.)

Q. Return the recorded melting point value; entry: Cc1c(Br)cn(CCCc2cn(CCCCC(=O)NC3CCC(NC(=O)c4cc5cccnc5n(Cc5ccc(F)cc5)c4=O)CC3)nn2)c(=O)c1NC(=O)C1CCCCCC1 (centres unmarked) [JR14a]
A. 108 °C (dec.)

====

SUBJECT_OF_TEST: hCB2R (Homo sapiens)
Sequence (P34972 whole entry): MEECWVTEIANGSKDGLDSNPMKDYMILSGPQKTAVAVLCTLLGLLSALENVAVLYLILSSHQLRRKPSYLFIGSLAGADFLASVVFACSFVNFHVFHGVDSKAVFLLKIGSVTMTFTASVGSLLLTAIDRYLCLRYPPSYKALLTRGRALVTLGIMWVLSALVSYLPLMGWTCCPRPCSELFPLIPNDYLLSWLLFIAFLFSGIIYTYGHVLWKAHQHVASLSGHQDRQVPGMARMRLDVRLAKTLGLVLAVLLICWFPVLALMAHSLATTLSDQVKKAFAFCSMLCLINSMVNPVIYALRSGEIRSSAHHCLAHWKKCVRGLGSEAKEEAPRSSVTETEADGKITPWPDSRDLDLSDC
TEST_DETAILS: DiscoveRx HitHunter inhibition of FSK-stimulated cAMP accumulation
Assay type: cell-based
MEASUREMENT_PARAMETERS: CHO-K1 hCB2R, 10 µM FSK, 90 min
OBSERVED_PROPERTY: Inhibition of cAMP E max (% CP55,940) ± S.E.M

Q. Retrieve Inhibition of cAMP E max (% CP55,940) ± S.E.M on hCB2R (Homo sapiens); query Cc1c(Br)cn(Cc2cn(CCCCC(=O)NC3CCC(NC(=O)c4cc5cccnc5n(Cc5ccc(F)cc5)c4=O)CC3)nn2)c(=O)c1NC(=O)C1CCCCCC1 (stereo not drawn) [JR16a]
A. 36 ± 8.6 % CP55,940

Q. Retrieve Inhibition of cAMP E max (% CP55,940) ± S.E.M on hCB2R (Homo sapiens); query Cc1c(Br)cn(CCCc2cn(CCCCCn3c(=O)c(C(=O)NC4CCC(C)CC4)cc4cccnc43)nn2)c(=O)c1NC(=O)C1CCCCCC1 (stereo not drawn) [JR22a]
A. 38 ± 5.5 % CP55,940

Q. Retrieve Inhibition of cAMP E max (% CP55,940) ± S.E.M on hCB2R (Homo sapiens); query Cc1c(Br)cn(CCCCCn2c(=O)c(C(=O)NC3CCC(C)CC3)cc3cccnc32)c(=O)c1NC(=O)C1CCCCCC1 (stereo not drawn) [JR61a]
A. 46 ± 1.7 % CP55,940

Q. Retrieve Inhibition of cAMP E max (% CP55,940) ± S.E.M on hCB2R (Homo sapiens); query Cc1c(Br)cn(CCOCCn2c(=O)c(C(=O)NC3CCC(C)CC3)cc3cccnc32)c(=O)c1NC(=O)C1CCCCCC1 (stereo not drawn) [JR58a]
A. 45 ± 2.9 % CP55,940

Q. Retrieve Inhibition of cAMP E max (% CP55,940) ± S.E.M on hCB2R (Homo sapiens); query Cc1c(Br)cn(Cc2ccc(F)cc2)c(=O)c1NC(=O)C1CCCCCC1 [EC21a, reference compound]
A. 2.5 ± 0.53 % CP55,940

Q. Retrieve Inhibition of cAMP E max (% CP55,940) ± S.E.M on hCB2R (Homo sapiens); query Cc1c(Br)cn(Cc2cn(CCCCCn3c(=O)c(C(=O)NC4CCC(C)CC4)cc4cccnc43)nn2)c(=O)c1NC(=O)C1CCCCCC1 (stereo not drawn) [JR26a]
A. 41 ± 5.1 % CP55,940

Q. Retrieve Inhibition of cAMP E max (% CP55,940) ± S.E.M on hCB2R (Homo sapiens); query Cc1c(Br)cn(CCCCOCCCCn2c(=O)c(C(=O)NC3CCC(C)CC3)cc3cccnc32)c(=O)c1NC(=O)C1CCCCCC1 (stereo not drawn) [JR60a]
A. 46 ± 4.4 % CP55,940

Q. Retrieve Inhibition of cAMP E max (% CP55,940) ± S.E.M on hCB2R (Homo sapiens); query Cc1c(Br)cn(CCCCCCCn2c(=O)c(C(=O)NC3CCC(C)CC3)cc3cccnc32)c(=O)c1NC(=O)C1CCCCCC1 (stereo not drawn) [JR64a]
A. 38 ± 0.74 % CP55,940

Q. Retrieve Inhibition of cAMP E max (% CP55,940) ± S.E.M on hCB2R (Homo sapiens); query Cc1c(Br)cn(CCCc2cn(CCCCC(=O)NC3CCC(NC(=O)c4cc5cccnc5n(Cc5ccc(F)cc5)c4=O)CC3)nn2)c(=O)c1NC(=O)C1CCCCCC1 (stereo not drawn) [JR14a]
A. 41 ± 5.7 % CP55,940

====

Would you mind telling me the reported hCB2R E min (% CP55,940) ± S.E.M of each entry?
SUBJECT_OF_TEST: UniProt:P34972
TEST_DETAILS: [3H]CP55,940 radioligand displacement, CHO-K1 hCB2R membranes
Assay type: binding
MEASUREMENT_PARAMETERS: % [3H]CP55,940 bound, 1 nM radioligand, 2 h

Q. Retrieve hCB2R E min (% CP55,940) ± S.E.M on UniProt:P34972; query CC1CCC(NC(=O)c2cc3cccnc3n(CCCCCO)c2=O)CC1 (stereo not shown) [LV62, reference compound]
A. 16 ± 11.9 % CP55,940

Q. Retrieve hCB2R E min (% CP55,940) ± S.E.M on UniProt:P34972; query Cc1c(Br)cn(CCCc2cn(CCCCC(=O)NC3CCC(NC(=O)c4cc5cccnc5n(Cc5ccc(F)cc5)c4=O)CC3)nn2)c(=O)c1NC(=O)C1CCCCCC1 (stereo not shown) [JR14a]
A. 59 ± 12.3 % CP55,940

Q. Retrieve hCB2R E min (% CP55,940) ± S.E.M on UniProt:P34972; query Cc1c(Br)cn(Cc2ccc(F)cc2)c(=O)c1NC(=O)C1CCCCCC1 [EC21a, reference compound]
A. 115 ± 7.9 % CP55,940

Q. Retrieve hCB2R E min (% CP55,940) ± S.E.M on UniProt:P34972; query Cc1c(Br)cn(CCCCCCCn2c(=O)c(C(=O)NC3CCC(C)CC3)cc3cccnc32)c(=O)c1NC(=O)C1CCCCCC1 (stereo not shown) [JR64a]
A. 20 ± 10.3 % CP55,940
